The reported numbers originate from ChEMBL document CHEMBL1764977.

Tested on: MCF7
test protocol: Growth inhibition of human MCF7 cells after 48 hrs by sulforhodamine B assay
Type: functional
test context: MCF7, 48 h
Please provide measured log10 GI50 for the entries that follow.
Form field - Quantity: GI50; Unit: µM; Scale: log10

// batch mode: one log10 GI50 value per listed entry
1. N#CCC1=C(C#N)CC(c2ccc([N+](=O)[O-])cc2)=C(CC(=O)c2ccc([N+](=O)[O-])cc2)O1
2. N#CCC1=NN=C(c2ccc(Br)cc2)CO1
3. N#CCC(=O)N/N=C(/CBr)c1ccc([N+](=O)[O-])cc1
4. N#CCC1=C(C#N)CC(c2ccc(Br)cc2)=C(CC(=O)c2ccc(Br)cc2)O1
5. N#CCC1=NN=C(c2ccc([N+](=O)[O-])cc2)C(CC(=O)c2ccc(Br)cc2)O1 (centres undefined)
6. N#CCC1=C(C#N)CC(c2ccc(Br)cc2)=C(CC(=O)c2ccc([N+](=O)[O-])cc2)O1

1. -1.52
2. 0.18
3. 1.26
4. 1.08
5. 1.56
6. -1.05

// batch mode: one log10 GI50 value per listed entry
1. N#CCC1=NN=C(c2ccc([N+](=O)[O-])cc2)CO1
2. N#CCC1=NN=C(c2ccc(Br)cc2)C(Br)O1 (centres undefined)
3. N#CCC1=NN=C(c2ccc([N+](=O)[O-])cc2)C(Br)O1 (centres undefined)

-3.00
1.85
1.03

----------
Tested on: MCF7
test protocol: Growth inhibition of human MCF7 cells after 48 hrs by sulforhodamine B assay
Format: functional
test context: MCF7, 48 h
Please provide measured log10 GI50 for the entries that follow.
Form field - Quantity: GI50; Unit: µM; Scale: log10

The cases that follow already have their log10 GI50 on record.
compound	log10 GI50
N#CCC1=NN=C(c2ccc([N+](=O)[O-])cc2)C(CC(=O)c2ccc([N+](=O)[O-])cc2)O1 (stereo not given)	0.20
N#CCC1=C(C#N)CC(c2ccc([N+](=O)[O-])cc2)=C(CC(=O)c2ccc(Br)cc2)O1	0.69
N#CCC1=NN=C(c2ccc(Br)cc2)C(CC(=O)c2ccc([N+](=O)[O-])cc2)O1 (stereo not given)	1.51
N#CCC1=NN=C(c2ccc(Br)cc2)C(CC(=O)c2ccc(Br)cc2)O1 (stereo not given)	1.48

Turning now to a further record.
Entry "N#CCC(=O)N/N=C(/CBr)c1ccc(Br)cc1" ; log10 GI50 = 1.61

----------
Test system: NCI-H460
test protocol: Growth inhibition of human NCI-H460 cells after 48 hrs by sulforhodamine B assay
Format: functional
test context: NCI-H460, 48 h
recorded endpoint: log10(GI50) (log10 of the value in µM)
Form field - Quantity: GI50; Unit: µM; Scale: log10

The cases that follow already have their log10(GI50) on record.
compound	log10(GI50)
N#CCC1=C(C#N)CC(c2ccc([N+](=O)[O-])cc2)=C(CC(=O)c2ccc(Br)cc2)O1	0.56
N#CCC(=O)N/N=C(/CBr)c1ccc(Br)cc1	1.00
N#CCC1=NN=C(c2ccc([N+](=O)[O-])cc2)C(CC(=O)c2ccc([N+](=O)[O-])cc2)O1 (stereo not given)	0.41
N#CCC(=O)N/N=C(/CBr)c1ccc([N+](=O)[O-])cc1	1.01

// batch mode: one log10(GI50) value per listed entry
1. N#CCC1=NN=C(c2ccc(Br)cc2)CO1
2. N#CCC1=NN=C(c2ccc([N+](=O)[O-])cc2)C(CC(=O)c2ccc(Br)cc2)O1 (stereo not given)
3. COc1cccc2c1C(=O)c1c(O)c3c(c(O)c1C2=O)C[C@@](O)(C(=O)CO)C[C@@H]3O[C@H]1C[C@H](N)[C@H](O)[C@H](C)O1 [DOXORUBICIN]
4. N#CCC1=C(C#N)CC(c2ccc([N+](=O)[O-])cc2)=C(CC(=O)c2ccc([N+](=O)[O-])cc2)O1
5. N#CCC1=NN=C(c2ccc(Br)cc2)C(Br)O1 (stereo not given)
6. N#CCC1=NN=C(c2ccc([N+](=O)[O-])cc2)CO1

1: -0.05; 2: 1.60; 3: -1.03; 4: -1.10; 5: 1.58; 6: -2.70

----------
System: NCI-H460
test protocol: Growth inhibition of human NCI-H460 cells after 48 hrs by sulforhodamine B assay
Assay type: functional
test context: NCI-H460, 48 h
So basically, if GI50 comes in under 8 µM it's label 1, and if it's 8 µM or more it's label 0.

A selection of reference data follows.
compound	target	category label
N#CCC1=NN=C(c2ccc(Br)cc2)C(CC(=O)c2ccc([N+](=O)[O-])cc2)O1 (stereo not given)	NCI-H460	label 0
N#CCC1=C(C#N)CC(c2ccc(Br)cc2)=C(CC(=O)c2ccc(Br)cc2)O1	NCI-H460	label 0

For N#CCC1=NN=C(c2ccc(Br)cc2)C(CC(=O)c2ccc(Br)cc2)O1 (stereo not given) , is the recorded GI50 below the cut-off of 8 µM?
label 0

For N#CCC1=NN=C(c2ccc([N+](=O)[O-])cc2)C(Br)O1 (stereo not given) , is the recorded GI50 below the cut-off of 8 µM?
label 0

For "N#CCC1=C(C#N)CC(c2ccc(Br)cc2)=C(CC(=O)c2ccc([N+](=O)[O-])cc2)O1" , is the recorded GI50 below the cut-off of 8 µM?
label 1
